Reported melting point values for the following compounds.
experimental.readout: melting point

chem.smiles: N#Cc1nn(-c2c(Cl)cc(C(F)(F)F)cc2Cl)cc1C1(C(F)(F)C(F)(F)F)CC1
result: 105 to 106 °C
//
chem.smiles: CCOC(=O)c1c(C(F)(F)F)nc(C(F)(F)F)c(C(=O)OC)c1N1CCCC1
result: 68.5 to 70 °C
//
chem.smiles: O=C(O)c1c[nH]c(Br)c1-c1ccc(Cl)cc1
result: > 205 °C

====

Reported melting point values for the following molecules.

molecule: CN(C)CC1CCc2c(c3cc(C(N)=O)ccc3n2C)C1=O (stereo not drawn)
melting point: 171 to 173 °C
//
molecule: O=C1OCCC=C1c1ccc(F)c(F)c1
melting point: 72 to 78 °C
//
molecule: CCOC(=O)C1=C(COCCN)NC(C)=C(C(=O)OC)C1c1cccc(C(F)(F)F)c1Cl (stereo not drawn)
melting point: 122 °C

====

Reported melting point values for the following molecules.
experimental.readout: melting point

molecule: O=C(NCCCCC1CCSS1)NS(=O)(=O)NC(=O)NCCCCC1CCSS1 (stereo not drawn)
result: 153 to 156 °C

molecule: COC(=O)c1ccc(C(=O)C#Cc2cc(-c3cccs3)c(OC)cc2OC)cc1
result: 198 to 200 °C

molecule: O=C(Nc1ccc(N2CC3CC3C2)nc1)c1cc2cc(F)cnc2n1Cc1cccc(F)c1 (stereo not drawn)
result: 222 to 224 °C

====

Reported melting point values for the following molecules.

molecule: CCN(Cc1cc(Br)ccc1OCc1ccccc1)c1ncc(C(=O)NCc2nnn[nH]2)s1
melting point: 232 to 236 °C

molecule: CC(C)(C)OC(=O)N[C@@H](CCl)[C@H](O)CCl
melting point: 142 to 145 °C

molecule: FC(F)(F)c1c(Cl)c(Cl)c(C=S)c(Cl)c1Cl
melting point: 98.5 to 100 °C

molecule: O=C1c2ccccc2-c2c1c1ccccc1c(=O)n2CCCCCCCCCCCCn1c2c(c3ccccc3c1=O)C(=O)c1ccccc1-2
melting point: 226 to 228 °C

molecule: COC(=O)c1ccc2c(c1)N(C(=O)c1ccc(C3CCCCC3)cc1)Cc1cccn1C2
melting point: 174 to 176 °C

molecule: CCc1nc2c(cnn2CC)c(NC2CCOCC2)c1CNC(=O)c1cc(C)cc(C(=O)NCc2cccc(-c3cccc(CC4CCNCC4)c3)c2)c1
melting point: 130 to 132 °C

molecule: Cc1ccc(C(=Cc2nnnn2C)c2ccc(C)cc2F)c(F)c1
melting point: 58 to 60 °C

molecule: CN1CCC(=C2c3ccc(Cl)cc3C(=O)Cc3cccnc32)CC1
melting point: 181 to 183 °C

molecule: O=C1N(c2cc(Cl)cc(Cl)c2)C(=O)C2(Cc3ccc(Br)cc3)CNCCN12 (stereo not drawn)
melting point: 92.5 °C

molecule: NC(=O)c1ccc2cc(O)ccc2c1
melting point: 205 to 206 °C

molecule: COC(=O)c1ccc(N2CCC[C@H](N(Cc3cc(C(F)(F)F)cc(C(F)(F)F)c3)c3nnn(C)n3)c3cc(C)c(C(F)(F)F)cc32)cc1
melting point: 101 to 105 °C

molecule: CC(C)N1CCN(CCN2CCN(c3cn(-c4ccc(F)cc4)c4cc(Cl)ccc34)CC2)C1=O
melting point: 176 to 177 °C

molecule: C=CC(=O)NC1CC(C)(C)N(C=CC(=O)OCC)C(C)(C)C1
melting point: 123 to 125 °C

molecule: CCCCc1ccc(N)nc1
melting point: 30 to 33 °C

molecule: CC(=O)C(C)(C#N)c1ccc2c(c1)Cc1cccnc1O2 (stereo not drawn)
melting point: 164 °C

molecule: CC(O)CCCCCCCCc1ccc(O)c(O)c1 (stereo not drawn)
melting point: 43 to 46 °C

molecule: COc1ccc2c(c1)C(=O)c1ccc(OC)cc1C2(Cc1ccnc(F)c1)Cc1ccnc(F)c1
melting point: 151 to 152 °C

molecule: Cc1[nH]c(=O)c(C(F)(F)C(F)(F)F)c2c1CC(c1ccncc1)CC2 (stereo not drawn)
melting point: 265 to 300 °C

molecule: CN(C)c1cc(CC#N)cc(Cc2nc3c(F)c(F)cc(F)c3s2)c1
melting point: 99 to 100 °C

molecule: CC1S/C(=N/N=C\c2ccc(-c3ncn(-c4ccc(OC(F)(F)F)cc4)n3)cc2)N(c2ccccc2C2CC2)C1=O (stereo not drawn)
melting point: 112 to 115 °C

molecule: COC(=O)[C@H](Cc1cc(Cl)c(OCCc2coc(-c3cccc(OCc4ccccc4)c3)n2)c(Cl)c1)NC(=O)C(F)(F)F
melting point: 111 to 113 °C

molecule: ClCc1cc(-c2ccccc2)nc2ccccc12
melting point: 79 °C

molecule: N=C(Nc1ccc2c(c1)CN1CCOCC1C2)c1cccs1 (stereo not drawn)
melting point: 190 to 194 °C

molecule: COc1ccc(-c2ccc(C(=O)Nc3cc4ncc(CN5CCCCCC5)cc4cc3C)cc2)cc1
melting point: 161 °C

molecule: O=C(O)CCC(=O)c1ccc(F)c([N+](=O)[O-])c1
melting point: 136 °C

molecule: CS(=O)(=O)N[C@@H]1CCCC[C@H]1Nc1nc(Nc2ccc3c(c2)CNCCS3)ncc1Cl
melting point: 141 to 143 °C

molecule: Cc1cc(C(=O)O)c(NC(=O)C(C)C)s1
melting point: 160 to 162 °C

molecule: O=C(Nn1ccc2ccccc21)C1=CCCN(CCN2CCCCC2)C1
melting point: 65 °C

====

Reported melting point values for the following molecules.

molecule: N#CCCC(=O)c1cccc(Cl)c1
melting point: 49 to 51 °C

molecule: COc1ccc2c(c1)CCNC(=O)C2
melting point: 152 to 154 °C

molecule: Nc1ccccc1CNC1CCC(=O)NC1=O (stereo not drawn)
melting point: 48 to 54 °C

molecule: CCOC(=O)C1=C(C)NC(c2nccn2Cc2ccccc2)=NC1c1ccc(F)cc1 (stereo not drawn)
melting point: 162 to 164 °C

molecule: Cc1noc(NS(=O)(=O)c2ccccc2-c2ccc(-c3ncco3)cc2CN(C)C(=O)c2ccc(F)c(F)c2)c1C
melting point: 122 to 128 °C

molecule: Cc1ccc(I)c(CC(=O)N(C)C)c1
melting point: 47 to 49 °C

molecule: c1ccc(C(c2ccnc3ccccc23)n2ccnc2)cc1 (stereo not drawn)
melting point: 143 °C

molecule: COCOc1ccc(CCCOc2c(CC(=O)O)cccc2OC)c(Oc2ccc(C(F)(F)F)cn2)c1
melting point: 70 to 72 °C

====

Reported melting point values for the following compounds.
experimental.readout: melting point

compound: Cc1nccc(NC(=O)C(CC2CCCC2)c2ccc(S(C)(=O)=O)c(C#N)c2)n1 (stereo not drawn)
result: 89 to 94 °C
//
compound: O=C(c1ccc2ccn(CCOc3ccc(CC(OCC(F)(F)F)C(=O)O)cc3)c2n1)C1CC1 (stereo not drawn)
result: 113 °C
//
compound: CS(=O)(=O)NCCn1c(=O)c(-c2cccs2)nc2ccccc21
result: 236 to 237 °C

====

Reported melting point values for the following molecules.

chem.smiles: OC1(c2ccc(Cl)cc2)CCN(CCNC(c2ccccc2)c2ccccc2)CC1
melting point / °C: 114
--
chem.smiles: CCOC(=O)N1CCN(C2=Nc3ccccc3Nc3ccsc32)CC1
melting point / °C: 166
--
chem.smiles: Nc1scc2c1C(=O)c1cc(Cl)c(Cl)cc1-2
melting point / °C: 272
--
chem.smiles: Cn1cc(OS(C)(=O)=O)c(=O)c2ccc(C(F)(F)F)cc21
melting point / °C: 218
--
chem.smiles: CC(C)(C)OC(=O)N1CCN(c2cccc3c2cnn3S(=O)(=O)c2ccccc2)CC1
melting point / °C: 130

====

experimental.readout: melting point

molecule: COC(=O)c1ccc(OCCNC(=O)C2Cc3ccccc3N2S(=O)(=O)c2ccc(-c3cccc(C(F)(F)F)c3)cc2)cc1C(F)(F)F (stereo not drawn)
result: 75 to 79 °C
--
molecule: CC1(COc2ccc(OCCNCC(O)COc3ccccc3)cc2)OCCO1 (stereo not drawn)
result: 95 to 97 °C
--
molecule: CS(=O)(=O)c1ccc(-c2cnn(-c3ccc(F)cc3F)c(=O)c2-c2ccc(F)cc2)cc1
result: 245 to 247 °C
--
molecule: O=C(O)CS(=O)(=O)c1ccc2c(-c3ccccc3F)noc2c1Cl
result: 204 °C
--
molecule: CN(SC(C)(C)C(=O)c1ccccc1)C(=O)ON=C1SC(C)(C)C(=O)N1C
result: 98 to 100 °C
--
molecule: Cc1cc(C)c2c(c1)OC(=O)C2c1ccc(C(C)C)cc1 (stereo not drawn)
result: 76 to 77 °C
--
molecule: COc1ccc2c(c1)c1c(n2CCCN(C)C)CCCSCC1
result: 79 to 80 °C
--
molecule: Cc1oc(C=Cc2ccc(Cl)cc2)nc1CCl
result: 121 to 122 °C

====

Reported melting point values for the following compounds.
experimental.readout: melting point

compound: CN(C)CCNC1=CC(=O)c2nc(-c3cc(F)ccc3F)oc2C1=O
result: 162 to 163 °C

compound: Cc1cc(C)c2nc(N(CC(C)N3CCOCC3)C3CCNCC3)n(Cc3nc(C)ccc3O)c2c1 (stereo not given)
result: 223 °C

compound: CS(=O)(=O)c1ccc(C(=O)Nc2ccc(Cl)c(-c3ccc(C(=O)NO)cn3)c2)c(Cl)c1
result: 190 to 193 °C

compound: CC(O)CNC(=O)NC(=O)C(CC1CCCC1)c1ccc(Cl)c(Cl)c1 (stereo not given)
result: 117 to 120 °C

compound: O=C(NCCCCCCOC(=O)N1CCC2(CCCC2)CC1)OC1CCN(C(=O)Oc2ccc(Oc3ccccc3)cc2)CC1
result: 83 to 85 °C

compound: COC1(c2ccc(C=Cc3cc(F)cc(F)c3NC(=O)C(C)(C)C)cc2)CCOCC1
result: 77 to 79 °C

compound: CC(C)S(=O)(=O)c1ccc2c(c1)nc(CC(C)(C)C)n2CCN1CCOCC1
result: 151 °C

compound: CCCCCCOc1cc(-c2ccc3cc4c(cc3c2)C(C)(C)CCC4(C)C)ccc1C(=O)OC
result: 102 to 104 °C

compound: CCOC(=O)C1=C(C)NC(C)=C(C(=O)OCCN2CCN(C(c3ccccc3)c3ccccc3)CC2)C1c1cccc(Cl)c1Cl (stereo not given)
result: 87 to 89 °C

compound: CS(=O)(=O)Nc1cc2occ(NC(N)=O)c(=O)c2cc1Oc1ccccc1
result: > 250 °C
